# Test system: HCR2 parasites (highly cipargamin-resistant clone 2)
# test_method_notes: P. falciparum proliferation assay (72 h, fluorescent DNA-intercalating dye)
# Assay type: cell-based, Plasmodium falciparum
# cond: Plasmodium falciparum, read-out: Mean IC50 value ± SEM for growth inhibition, HCR2; Supplementary Table 1, Set 1
parameter_measured: IC50
Please answer using the number first and the unit second.

State the recorded IC50 for this entry: N#Cc1cc(NC(=O)[C@H]2c3ccccc3C(=O)N(CC(F)(F)F)[C@@H]2c2cccnc2)ccc1F [(+)-SJ733] 17.6 µM

State the recorded IC50 for this entry: C[C@H]1Cc2c([nH]c3cc(Cl)c(F)cc23)[C@@]2(N1)C(=O)Nc1ccc(Cl)cc12 [Cipargamin] 2.92 µM
